B1: ATGL (PNPLA2, patatin-like phospholipase domain-containing protein 2), human, full length / perilipin-1, mouse (mPlin1) (parent)
chain 1: MFPREKTWNISFAGCGFLGVYYVGVASCLREHAPFLVANATHIYGASAGALTATALVTGVCLGEAGAKFIEVSKEARKRFLGPLHPSFNLVKIIRSFLLKVLPADSHEHASGRLGISLTRVSDGENVIISHFNSKDELIQANVCSGFIPVYCGLIPPSLQGVRYVDGGISDNLPLYELKNTITVSPFSGESDICPQDSSTNIHELRVTNTSIQFNLRNLYRLSKALFPPEPLVLREMCKQGYRDGLRFLQRNGLLNRPNPLLALPPARPHGPEDKDQAVESAQAEDYSQLPGEDHILEHLPARLNEALLEACVEPTDLLTTLSNMLPVRLATAMMVPYTLPLESALSFTIRLLEWLPDVPEDIRWMKEQTGSICQYLVMRAKRKLGRHLPSRLPEQVELRRVQSLPSVPLSCAAYREALPGWMRNNLSLGDALAKWEECQRQLLLGLFCTNVAFPPEALRMRAPADPAPAPADPASPQHQLAGPAPLLSTPAPEARPVIGALGL
chain 2: MSMNKGPTLLDGDLPEQENVLQRVLQLPVVSGTCECFQKTYNSTKEAHPLVASVCNAYEKGVQGASNLAAWSMEPVVRRLSTQFTAANELACRGLDHLEEKIPALQYPPEKIASELKGTISTRLRSARNSISVPIASTSDKVLGATLAGCELALGMAKETAEYAANTRVGRLASGGADLALGSIEKVVEFLLPPDKESAPSSGRQRTQKAPKAKPSLVRRVSTLANTLSRHTMQTTAWALKQGHSLAMWIPGVAPLSSLAQWGASAAMQVVSRRQSEVRVPWLHNLAASQDESHDDQTDTEGEETDDEEEEEESEAEENVLREVTALPNPRGLLGGVVHTVQNTLRNTISAVTWAPAAVLGTVGRILHLTPAQAVSSTKGRAMSLSDALKGVTDNVVDTVVHYVPLPRLSLMEPESEFRDIDNPSAEAERKGSGARPASPESTPRPGQPRGSLRSVRGLSAPSCPGLDDKTEASARPGFLAMPREKPARRVSDSFFRPSVMEPILGRAQYSQLRKKS

- Variants of: B1
- PROCEDURE_SUMMARY: LUMIER: Protein A-ATGL variant and firefly luciferase-partner co-expressed in HEK293T, lysates immunoprecipitated on IgG-coated plates, co-precipitated partner measured as luciferase luminescence
- CONDITION_NOTES: with perilipin-1, mouse (mPlin1), transient co-transfection, IgG-coated LUMITRAC plates, 2 h at 4 °C, three PBS washes, Bright-Glo luciferase reagent, triplicates per assay, two …, parent: 0.26, not graded, scale: log2 fold change of co-immunoprecipitated luminescence relative to wild-type ATGL within each experiment
Records here are stratified by screen value; strata: range A: < -0.5; range B: ≥ -0.5 and < -0.2; range C: ≥ -0.2

Lookup: Which bin, given its screen value, does chain 1 H109E occupy?
Found: range B

Lookup: Which bin, given its screen value, does chain 1 L159A occupy?
Found: range A

Lookup: Which bin, given its screen value, does chain 1 F35A occupy?
Found: range C

Lookup: Which bin, given its screen value, does chain 1 P156K occupy?
Found: range A

Lookup: Which bin, given its screen value, does chain 1 R113L occupy?
Found: range C

Lookup: Which bin, given its screen value, does chain 1 F35E occupy?
Found: range C

Lookup: Which bin, given its screen value, does chain 1 G189E occupy?
Found: range A

Lookup: Which bin, given its screen value, does chain 1 L178A occupy?
Found: range A

Lookup: Which bin, given its screen value, does chain 1 K92L occupy?
Found: range C

Lookup: Which bin, given its screen value, does chain 1 L261E occupy?
Found: range A

Lookup: Which bin, given its screen value, does chain 1 Y415A occupy?
Found: range C

Lookup: Which bin, given its screen value, does chain 1 N180L occupy?
Found: range C

Lookup: Which bin, given its screen value, does chain 1 A453E occupy?
Found: range C

Lookup: Which bin, given its screen value, does chain 1 S87A occupy?
Found: range C

Lookup: Which bin, given its screen value, does chain 1 S106K occupy?
Found: range A

Lookup: Which bin, given its screen value, does chain 1 K275A occupy?
Found: range A

Lookup: Which bin, given its screen value, does chain 1 S158E occupy?
Found: range B

Lookup: Which bin, given its screen value, does chain 1 G153A occupy?
Found: range B

Lookup: Which bin, given its screen value, does chain 1 R351L occupy?
Found: range C

Lookup: Which bin, given its screen value, does chain 1 L102K occupy?
Found: range A

These entries and their values trace back to paper PMC10958042.
